- Test system: 786-0 renal
- Assay remarks: NCI tumour cell line growth inhibition, 48 h
TGI overview
Numeric answer only, unit µM assumed.

O=C1c2ccccc2C(=O)c2c(NCCN=Cc3ccccc3O)cccc21 : 37.9
COc1ccc(-c2nn(-c3cccc(Cl)c3)cc2-c2nc(N)[nH]c(=O)c2C#N)cc1 : 33.5

The compound identified as COc1cc2c(cc1OC)C1Cc3cc(OC)c(OC)cc3N1CC2 (stereo not given) registered its TGI at 37.9

get_value(item= O=[N+]([O-])c1c(F)c(F)c2c(c1F)N(CCCCCl)c1ccccc1S2 , readout=TGI) returns 23.8

---

- Tested on: NCI/ADR-RES ovarian
- Assay remarks: NCI tumour cell line growth inhibition, 48 h
Here the recorded TGI is given for each entry.
Form entry: value (µM) — number only.

Recorded results for 5 compounds are shown here.
NCCCn1c2c(c3ccccc3c1=O)C(=O)c1ccccc1-2 : 2.68
CCOC(=O)C1=C(N)Oc2c(sc3c(C)cccc23)C1c1ccc(F)cc1 (stereo not given) : 14.5
CC(=O)SC(C[N+](=O)[O-])c1ccc2c(c1)OCO2 (stereo not given) : 35.5
C=CCn1c(SCC(=O)Nc2ccc(C(=O)/C=C/c3cc(OC)c(OC)c(OC)c3)cc2)nnc1-c1ccc(OC)cc1 : 17.6
CC(=O)c1c(N=[N+]=[N-])c2cccc3c2n(c1=O)CCC3 : 38.2

We next turn to a different compound, shown below.
TGI reported for this compound CCCCCCCCCCCC(=O)OC[C@@H](C[As](=O)(O)O)OC(=O)CCCCCCCCCCC : 36.6
